The measured values listed here are drawn from the supplement of paper PMC10899765.

# Tested on: MCF10A
# assay: 5+ nucleoli phenotype percent effect (relative to siNT 0% and siKIF11 100%); higher = more cells with five or more nucleoli
# condition-summary: 20 nM; 72 h

- residue-string: "UAAGGAGGGGGAUGAGGGG [hsa-miR-6891-5p]"
  5+ nucleoli phenotype percent effect [%]: -18.8
- residue-string: "CAGCAGGGGAGAGAGAGGAGUC [hsa-miR-6510-5p]"
  5+ nucleoli phenotype percent effect [%]: -10.7
- residue-string: "UCUAGUGCGGGCGUUCCCG [hsa-miR-6080]"
  5+ nucleoli phenotype percent effect [%]: 23.2
- residue-string: "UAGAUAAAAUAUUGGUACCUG [hsa-miR-577]"
  5+ nucleoli phenotype percent effect [%]: 29.6
- residue-string: "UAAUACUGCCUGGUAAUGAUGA [hsa-miR-200b-3p]"
  5+ nucleoli phenotype percent effect [%]: 93.4
- residue-string: "CGUGGAUUGUCUGGAUGCAU [hsa-miR-8056]"
  5+ nucleoli phenotype percent effect [%]: -25.1
- residue-string: "AAAGAUAGACAAUUGGCUAAAU [hsa-miR-4662a-3p]"
  5+ nucleoli phenotype percent effect [%]: 4.11
- residue-string: "UCCCCAACCCCUGCCCGCAG [hsa-miR-6793-3p]"
  5+ nucleoli phenotype percent effect [%]: -15.2
- residue-string: "AUCCCACCACUGCCACCAU [hsa-miR-1260b]"
  5+ nucleoli phenotype percent effect [%]: 18.9
- residue-string: "AGAAGUGGCUAAUAAUAUUGA [hsa-miR-4795-5p]"
  5+ nucleoli phenotype percent effect [%]: -2.9
- residue-string: "CGGAUGAGCAAAGAAAGUGGUU [hsa-miR-1255b-5p]"
  5+ nucleoli phenotype percent effect [%]: 45.2
- residue-string: "CCAGGGGGAUGGGCGAGCUUGGG [hsa-miR-6798-5p]"
  5+ nucleoli phenotype percent effect [%]: 13.9
- residue-string: "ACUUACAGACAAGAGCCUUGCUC [hsa-miR-600]"
  5+ nucleoli phenotype percent effect [%]: 41.8
- residue-string: "AAUGGCUGUCCGUAGUAUGGUC [hsa-miR-889-5p]"
  5+ nucleoli phenotype percent effect [%]: -28.6
- residue-string: "ACUGGACUUGGAGUCAGAAGGC [hsa-miR-378a-3p]"
  5+ nucleoli phenotype percent effect [%]: 13.6
- residue-string: "UAGGGGCAGCAGAGGACCUGGG [hsa-miR-4688]"
  5+ nucleoli phenotype percent effect [%]: 8.84
- residue-string: "UGCCGCCCUCUCGCUGCUCUAG [hsa-miR-4632-3p]"
  5+ nucleoli phenotype percent effect [%]: -6.54
- residue-string: "UGCGGCCGGUGCUCAACCUGC [hsa-miR-1199-3p]"
  5+ nucleoli phenotype percent effect [%]: -6.68
- residue-string: "GUGCGUGGUGGCUCGAGGCGGGG [hsa-miR-6821-5p]"
  5+ nucleoli phenotype percent effect [%]: 24.3
- residue-string: "AAUCCUUGCUACCUGGGU [hsa-miR-500b]"
  5+ nucleoli phenotype percent effect [%]: 12.8
- residue-string: "UGUUUCGGGGCUCAUGGCCUGUG [hsa-miR-5705]"
  5+ nucleoli phenotype percent effect [%]: 33.2
- residue-string: "GCCCGAGAGGAUCCGUCCCUGC [hsa-miR-4740-3p]"
  5+ nucleoli phenotype percent effect [%]: 17.8
- residue-string: "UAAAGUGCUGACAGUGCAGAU [hsa-miR-106b-5p]"
  5+ nucleoli phenotype percent effect [%]: 5.03
- residue-string: "AGAAAGGGUGGCAAUACCUCUU [hsa-miR-5681a]"
  5+ nucleoli phenotype percent effect [%]: -33.1
- residue-string: "ACACAUGGGUGGCUGUGGCCU [hsa-miR-4717-3p]"
  5+ nucleoli phenotype percent effect [%]: 24.6
- residue-string: "AAUCACUAACCACACGGCCAGG [hsa-miR-34c-3p]"
  5+ nucleoli phenotype percent effect [%]: 13.7
- residue-string: "GCCCAGGACUUUGUGCGGGGUG [hsa-miR-6840-3p]"
  5+ nucleoli phenotype percent effect [%]: 16.2
- residue-string: "CAGUGCAAUGUUUUCCUU [hsa-miR-4295]"
  5+ nucleoli phenotype percent effect [%]: 97.9
- residue-string: "AGCAGACUUGACCUACAAUUA [hsa-miR-4771]"
  5+ nucleoli phenotype percent effect [%]: 3.81
- residue-string: "CAUGGGGUAGGGCAGAGUAGG [hsa-miR-6890-5p]"
  5+ nucleoli phenotype percent effect [%]: -15.7
- residue-string: "CAGCAGUCCCUCCCCCUG [hsa-miR-4274]"
  5+ nucleoli phenotype percent effect [%]: 7.99
- residue-string: "ACGUUUGAAUGCUGUACAAGGC [hsa-miR-5707]"
  5+ nucleoli phenotype percent effect [%]: 56.2
- residue-string: "AGCUGUCUGAAAAUGUCUU [hsa-miR-626]"
  5+ nucleoli phenotype percent effect [%]: 25.1
- residue-string: "AUAGUGGGAAGCUGGCAGAUUC [hsa-miR-4727-3p]"
  5+ nucleoli phenotype percent effect [%]: -30.8
- residue-string: "UUAACUCCUUUCACACCCAUGG [hsa-miR-4764-3p]"
  5+ nucleoli phenotype percent effect [%]: 15.3
- residue-string: "CUGCAGAGUUUGUACGGACCGG [hsa-miR-3678-3p]"
  5+ nucleoli phenotype percent effect [%]: -37.4
- residue-string: "CUAGGGGGUUUGCCCUUG [hsa-miR-4278]"
  5+ nucleoli phenotype percent effect [%]: -35.5
- residue-string: "UGAGAAGGCACAGCUUGCACGUGA [hsa-miR-6770-5p]"
  5+ nucleoli phenotype percent effect [%]: -3.61
- residue-string: "CUGCCCUGGCCCGAGGGACCGA [hsa-miR-874]"
  5+ nucleoli phenotype percent effect [%]: -5.29
- residue-string: "UCCCCUUCCUCCCUGCCCAG [hsa-miR-6756-3p]"
  5+ nucleoli phenotype percent effect [%]: 16.4
- residue-string: "UCUUGAAGUCAGAACCCGCAA [hsa-miR-4635]"
  5+ nucleoli phenotype percent effect [%]: -29.8
- residue-string: "UGGGGUAAGGAUAGGAGGGUCA [hsa-miR-6881-5p]"
  5+ nucleoli phenotype percent effect [%]: -3.46
- residue-string: "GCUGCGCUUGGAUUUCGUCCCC [hsa-miR-191-3p]"
  5+ nucleoli phenotype percent effect [%]: 5.48
- residue-string: "UGGGAAUGGGGGUAAGGGCC [hsa-miR-6716-5p]"
  5+ nucleoli phenotype percent effect [%]: -19.9
- residue-string: "CUUCCUCGUCUGUCUGCCCC [hsa-miR-1238-3p]"
  5+ nucleoli phenotype percent effect [%]: -4.82
- residue-string: "GAGGGCAGCGUGGGUGUGGCGGA [hsa-miR-4632-5p]"
  5+ nucleoli phenotype percent effect [%]: 13.1
- residue-string: "UGGAGAUCCAGUGCUCGCCCGAU [hsa-miR-4683]"
  5+ nucleoli phenotype percent effect [%]: -20.1
- residue-string: "UUCGCCACUUCCCUCCCUGCAG [hsa-miR-6788-3p]"
  5+ nucleoli phenotype percent effect [%]: 18
